testSystem: S. aureus SpsB signal peptidase (Staphylococcus aureus) (UniProt P0A070)
Sequence: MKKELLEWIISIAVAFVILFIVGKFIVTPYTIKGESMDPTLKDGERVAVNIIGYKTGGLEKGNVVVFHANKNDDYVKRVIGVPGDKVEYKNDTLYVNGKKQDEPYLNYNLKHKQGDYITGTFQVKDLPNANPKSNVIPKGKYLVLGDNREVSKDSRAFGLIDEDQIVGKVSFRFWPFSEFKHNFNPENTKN
testSummary: cell-based or functional assay
quantityKind: signal change (fluorescence polarisation assay, developed with avidin)

signal change (fluorescence polarisation assay, developed with avidin) lookup needed for Decanoyl-Lys(Bio-X)-Thr-Pro-Thr-Ala-Lys-Ala-Ala-Ser-Lys-Ile-Asp-Asp-Gly-Lys(Flu)-Asp-OH (peptide) , thanks.
> 150 mP

signal change (fluorescence polarisation assay, developed with avidin) lookup needed for Decanoyl-Leu-Thr-Pro-Lys(Bio-X)-Ala-Lys-Ala-Ala-Ser-Lys-Lys(Flu)-Asp-Asp-OH (peptide) , thanks.
> 150 mP

***
signal change (fluorescence polarisation assay, developed with avidin) lookup needed for Decanoyl-Leu-Thr-Pro-Lys(Bio-X)-Ala-Lys-Ala-Ala-Ser-Lys-Ile-Asp-Asp-Gly-Lys(Flu)-Asp-OH (peptide) , thanks.
> 150 mP

signal change (fluorescence polarisation assay, developed with avidin) lookup needed for Decanoyl-Lys(Flu)-Thr-Pro-Thr-Ala-Lys-Ala-Ala-Ser-Lys-Lys(Bio-X)-Asp-Asp-OH (peptide) , thanks.
> 150 mP
